Origin of measurements: ChEMBL document CHEMBL2034840

Target: Melanocortin receptor 4 (Homo sapiens, UniProt P32245)
Sequence (P32245 whole entry): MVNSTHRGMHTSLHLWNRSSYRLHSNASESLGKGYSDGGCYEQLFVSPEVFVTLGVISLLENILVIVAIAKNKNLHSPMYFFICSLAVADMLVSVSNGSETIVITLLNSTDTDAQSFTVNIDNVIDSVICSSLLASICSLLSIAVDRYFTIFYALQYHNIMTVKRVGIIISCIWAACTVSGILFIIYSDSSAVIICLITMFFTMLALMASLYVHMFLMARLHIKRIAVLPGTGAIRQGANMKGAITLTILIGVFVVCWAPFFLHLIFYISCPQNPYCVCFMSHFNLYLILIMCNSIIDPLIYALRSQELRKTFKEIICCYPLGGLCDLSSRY
Test: Displacement of [125I]NDPMSH from human MC4 receptor expressed in HEK293 cells after 2 hrs by liquid scintillation counting
Assay type: cell-based
Measurement label: Ki (µM)

Consider the following illustrative entries.
| Molecule | Ki / µM |
| --- | --- |
| O=C(NCc1ccccc1)[C@@H]1CNC[C@H]1C(=O)Nc1cccc(-c2ccccc2)c1 | 6.6 |
| O=C(NCCc1ccccc1)[C@H]1CN(CCO)C[C@H]1C(=O)NC1CCN(Cc2ccccc2)C1 (mixture of isomers) | 6.2 |
| NCCNC(=O)[C@@H]1CNC[C@H]1C(=O)NC(=O)c1ccccc1 | 5.3 |

[A] O=C(NCCCc1ccccc1)[C@H]1CNC[C@H]1C(=O)NCc1ccc(C(F)(F)F)cc1
[B] O=C(NCCc1ccccc1)[C@@H]1CNC[C@H]1C(=O)NCc1ccccc1
[C] O=C(NCCc1cccc(F)c1)[C@H]1CN(CC2CC2)C[C@H]1C(=O)NC1CCN(Cc2ccccc2)C1 (mixture of isomers)
[D] O=C(NCCc1ccc(Cl)cc1)[C@H]1CN(CC2CC2)C[C@H]1C(=O)NC1CCN(Cc2ccccc2)C1 (mixture of isomers)
[E] O=C(NCCc1ccccc1)[C@H]1CN(CC2CC2)C[C@H]1C(=O)NC1CCN(Cc2ccccc2)C1 (mixture of isomers)
// smallest Ki at index 0, largest at the end Answer format: the labels, in the requested order.
D, B, C, E, A
